Origin of values: a melting point compilation (Tetko et al.)

Readout Name: melting point

Consider the reported melting point for these molecules:
# Molecule, melting point
data = [
    ("COc1ccc2occc2c1", "31 to 33 °C"),
    ("N#CCc1nc2ccccc2[nH]1", "210 to 215 °C"),
]

Please supply melting point for each of the following items, keeping them in order.
1. Cc1ccc(C(=O)OC(C(=O)O)C(OC(=O)c2ccc(C)cc2)C(=O)O)cc1 (single isomer, unassigned; (+))
2. COC(=O)c1occc1C
3. N#CCc1csc2ccc(Cl)cc12
4. CCOP(=S)(OCC)Oc1ccc(=O)n(-c2ccccc2)n1
5. NNC(=O)CC(=O)NN
6. CC12CCC3C(CCC4CC(OCc5ccccc5)CCC43C)C1CCC2O (stereo not given)
7. c1cc2c3c(cccc3c1)-c1nccnc1-2
8. O=C(c1ccc(F)cc1)c1ccccc1F

Reply:
1: 165 to 167 °C; 2: 35 °C; 3: 134 °C; 4: 56.2 °C; 5: 154 °C; 6: 225 °C; 7: 146 °C; 8: 22 to 24 °C

Provide each entry's melting point from the list below.
1. CCC(C)CC(C)(C)C (stereo not given)
2. COC(=O)c1c(C(F)F)nc(C(F)(F)F)c(C2=NCCS2)c1CC(C)C
3. CN(C)C(=O)Nc1ccc(-n2nc(C(C)(C)C)oc2=O)c(Cl)c1
4. O=C1OC(=O)c2cc(F)ccc21

Reply:
1. -120 °C
2. 78 °C
3. 193 °C
4. 75 to 78 °C

----------
Readout Name: melting point

# Compound, Readout Name, Result
rows = [
    ("Cc1ccc(C=O)c(O)c1", "melting point", "60.5 °C"),
]

Return reported melting point values for all items listed beneath this line.
1. O=S(=O)(O)CCS(=O)(=O)O
2. O=S(=O)(Cl)c1ccccc1Cl
3. O=C1Cc2cc(C(=O)CBr)ccc2N1
4. CC=Cc1cc(OC)c(OC)cc1OC
5. Ic1c(-c2ccccc2)cccc1-c1ccccc1

Reply:
173 °C
27 °C
225 °C
62.5 °C
115 °C

Take each entry in turn and give its melting point.
1. CC(=O)NC1C(Oc2c[nH]c3ccc(Br)c(Cl)c23)OC(CO)C(O)C1O (configuration not stated)
2. CC1CC2=CC(=O)CCC2(C)C2CCC3(C)C(CCC3(C)O)C12 (configuration not stated)

Reply:
246 to 248 °C
164 °C

----------
I'd appreciate it if you could supply melting point values for the items below.
Give bare numbers, in °C.

For every listed record, write down its melting point.
1. Cc1c(F)cccc1CC#N
2. O=c1nc2ccccc2nc(C(F)(F)F)c1NNc1ccc(Cl)cc1

Reply:
1: 47; 2: 151

I need melting point for every entry listed below, if you could help.
1. CCO[Si](Cl)(Cl)Cl
2. Cc1ccc2cc(F)ccc2n1

Reply:
-135
54

----------
Readout Name: melting point (°C)
One number for each entry, in °C.

# Molecule, melting point [°C]
measured = [
    ("CNC=O", -3.2),
    ("CC1(C)C=CC=C(C(=O)O)C=C1", 88.5),
    ("COc1ccc(Cl)cc1C=O", 77),
    ("O=Cc1ccc(Sc2ccc(Cl)cc2)c([N+](=O)[O-])c1", 120),
    ("O=C1c2ccccc2C(=O)C1c1cc(Cl)c([N+](=O)[O-])cc1[N+](=O)[O-]", 185),
    ("O=C1OC(=O)c2c(I)c(I)c(I)c(I)c21", 328),
    ("O=C(OC1CCCCC1)c1ccccc1C(=O)OC1CCCCC1", 66),
    ("O=C1CN=C(c2ccccc2)c2cc(Cl)ccc2N1CC(F)(F)F", 164),
]

Your task in this section: give melting point for each listed record.
1. Cc1cc(C)c(C)c(I)c1C
2. C/C(=N/NC(N)=O)C(C)Cc1ccccc1 (configuration not stated)

Reply:
1: 79; 2: 112

----------
Readout Name: melting point (°C)
Give bare numbers, in °C.

Use the examples below as a reference point.
# Molecule, melting point (°C)
measured = [
    ("N#Cc1c(F)cccc1I", 50),
    ("O=C(O)c1cccnc1Br", 254),
    ("CC(=O)CCCCC(=O)O", 35),
]

Query: Can you look up the measured melting point of CC12C=CCC1C1CCC3CC(O)CCC3(C)C1CC2 (stereo not drawn) for me?
Reply: 143

----------
Readout Name: melting point

# Compound, melting point
data = [
    ("CCNc1nc(Cl)nc(NC(C)(C)C#N)n1", "168 °C"),
]

Give me melting point for each of these compounds, listed below.
1. C=C(C)C(=O)NCO
2. CCSc1ncccc1C(=O)Cl
3. CCP(=O)(CC)CC
4. Oc1ccc(C=Nc2ccccc2N=Cc2ccc(O)cc2O)c(O)c1
5. NNc1cccc2ccccc12
6. O=Cc1cccc(-c2ccc(C(=O)O)cc2)c1
7. NC(=O)C1(N2C(=O)c3cccc(Cl)c3C2=O)CCCCC1
8. CN(C)c1ccc(F)cc1

Reply:
-37 °C
53 to 55 °C
52 to 53 °C
163 to 165 °C
117 °C
231 to 233 °C
194 °C
36 °C

Kindly give each listed record's melting point.
1. CC12CCC(O)CC1CCC1C2CCC2(C)C(C3=CC(=O)OC3)CCC12O (stereo unspecified)
2. CC(=O)C1CCC2C3CCC4CC(N)CCC4(C)C3CCC12C (stereo unspecified)

Reply:
1: 253 °C; 2: 126 °C

Here are 5 compounds. What values of melting point were reported for them?
1. c1ccc(-c2csc3nc4ccccc4n23)cc1
2. O=C(O)c1ccc(OCc2ccccc2)cc1
3. O=C1OC(=O)[C@H]2[C@@H]1[C@@H]1C3C=CC([C@H]21)[C@H]1C(=O)OC(=O)[C@@H]31
4. O=S(=O)(Cl)Cc1cccc(F)c1
5. O=C(c1ccc(C(=O)C(Cl)(Cl)Cl)cc1)C(Cl)Cl

Reply:
1: 140 to 142 °C; 2: 189 °C; 3: 355 to 357 °C; 4: 39 to 41 °C; 5: 136 °C

----------
Each entry falls in a class defined on melting point; the bands are A = under 80 °C, B = from 80 °C up to 200 °C, C = 200 °C and over

# Molecule, Class Assignment
rows = [
    ("CCOC(=O)Cc1n[nH]c2ccc(Cl)cc12", "A"),
    ("C#CCCCCC", "A"),
    ("O=[N+]([O-])c1cc2c(cc1CO)OCO2", "B"),
    ("CC(=O)C1CCC2C3CC=C4CC(O)CCC4(C)C3CCC12C (configuration not stated)", "B"),
    ("O=C(Nc1ccc2ncccc2c1)Nc1ccc2ncccc2c1", "C"),
    ("O=C1c2c(Br)c(Br)c(Br)c(Br)c2C(=O)N1CCN1C(=O)c2c(Br)c(Br)c(Br)c(Br)c2C1=O", "C"),
]

Now, please, on to the next molecule.
Query: Record Clc1ccc(SCSc2ccc(Cl)cc2)cc1 — which class?
Reply: A

----------
Readout Name: melting point (°C)
Answers are plain numbers, in °C.

# Compound, melting point, °C
rows = [
    ("CCOC(=O)/C(C(N)=S)=C1/NN=C(c2ccccc2O)O1", 128),
    ("Clc1cccc2cc3ccccc3cc12", 83.5),
    ("CC1C(=O)CCC2C1(C)CCC1C2(C)CCC2(C)C3CC(C)(C)CCC3(C)CCC12C (stereo unspecified)", 263),
    ("Cc1ccccc1NC(=O)c1cncc(Cl)n1", 98),
    ("CCC(C)(Br)CBr (stereo unspecified)", -70),
    ("Cc1cc(I)cnc1NC(=O)C(C)(C)C", 143),
    ("CCC1=C(C)C2=CCC=CC2=N1", 64),
    ("COc1ccc(/C=C2\\SC(=S)N(CN3CCOCC3)C2=O)cc1", 133),
]

For every item in the list below, what is its measured melting point?
1. O=C(O)c1sccc1Cl
2. O=C1C[C@@H](C(=O)O)c2ccccc21
3. Cc1cc2c(o1)-c1c(oc3ccc(Br)cc13)CCC2(C)c1ccccc1 (stereo unspecified)
4. N#Cc1c2ncccc2c(=O)n2c1sc1ccccc12
5. Cc1cncc(C)n1

Reply:
1. 186
2. 113
3. 127
4. 275
5. 47.5

Please look at the items below and tell me melting point for each one, in order.
1. CCc1cc(CC)cc(CC)c1
2. O=Cc1cccc(OCc2ccccc2)c1
3. O=C(C(=O)c1cc(Br)ccc1O)c1cc(Br)ccc1O
4. C=Cc1c(C)cc(C)cc1C

Reply:
-66.5
56
212
-37

List melting point for every entry below, keeping the order given.
1. Cc1c(Cl)c(=O)oc2cc(OP(=O)(OCCCl)OCCCl)ccc12
2. O=C1NN=C(C(F)(F)F)C1=NNc1ccc(Br)cc1
3. O=Cc1cccc(Br)n1
4. CNC(=O)n1cc(F)c(=O)[nH]c1=O
5. C=CCC(CC)(CC)C(N)=O

Reply:
[91, 212, 81, 226, 75]

Please supply melting point for each of the following items, keeping them in order.
1. CC(=O)OC(OC(C)=O)c1ccc2c(c1)C(=O)c1c(Cl)c(Cl)c(Cl)c(Cl)c1C2=O
2. CC(=O)CCc1oc2ccc(Cl)cc2c1-c1ccc(C)o1
3. O=CCc1ccccc1
4. C/C=C/c1ccc(O)c(OC)c1

Reply:
[172, 75, 33.5, 33.5]

For the 2 compounds below, give their melting point values.
1. Cc1ccc(N=C=S)c([N+](=O)[O-])c1
2. O=C(O)C=CC(=O)Nc1ccccc1

Reply:
65
177

Query: I am curious: what melting point value has been reported for CCOC=C(C#N)S(=O)(=O)c1ccccc1 ?
Reply: 74
